# system_name: ΔF508-CFTR (Homo sapiens, UniProt P13569, DEL508-508)
# Construct: expressed in transfected cells
# Sequence (P13569 with tags, fused parts or gaps DEL508-508): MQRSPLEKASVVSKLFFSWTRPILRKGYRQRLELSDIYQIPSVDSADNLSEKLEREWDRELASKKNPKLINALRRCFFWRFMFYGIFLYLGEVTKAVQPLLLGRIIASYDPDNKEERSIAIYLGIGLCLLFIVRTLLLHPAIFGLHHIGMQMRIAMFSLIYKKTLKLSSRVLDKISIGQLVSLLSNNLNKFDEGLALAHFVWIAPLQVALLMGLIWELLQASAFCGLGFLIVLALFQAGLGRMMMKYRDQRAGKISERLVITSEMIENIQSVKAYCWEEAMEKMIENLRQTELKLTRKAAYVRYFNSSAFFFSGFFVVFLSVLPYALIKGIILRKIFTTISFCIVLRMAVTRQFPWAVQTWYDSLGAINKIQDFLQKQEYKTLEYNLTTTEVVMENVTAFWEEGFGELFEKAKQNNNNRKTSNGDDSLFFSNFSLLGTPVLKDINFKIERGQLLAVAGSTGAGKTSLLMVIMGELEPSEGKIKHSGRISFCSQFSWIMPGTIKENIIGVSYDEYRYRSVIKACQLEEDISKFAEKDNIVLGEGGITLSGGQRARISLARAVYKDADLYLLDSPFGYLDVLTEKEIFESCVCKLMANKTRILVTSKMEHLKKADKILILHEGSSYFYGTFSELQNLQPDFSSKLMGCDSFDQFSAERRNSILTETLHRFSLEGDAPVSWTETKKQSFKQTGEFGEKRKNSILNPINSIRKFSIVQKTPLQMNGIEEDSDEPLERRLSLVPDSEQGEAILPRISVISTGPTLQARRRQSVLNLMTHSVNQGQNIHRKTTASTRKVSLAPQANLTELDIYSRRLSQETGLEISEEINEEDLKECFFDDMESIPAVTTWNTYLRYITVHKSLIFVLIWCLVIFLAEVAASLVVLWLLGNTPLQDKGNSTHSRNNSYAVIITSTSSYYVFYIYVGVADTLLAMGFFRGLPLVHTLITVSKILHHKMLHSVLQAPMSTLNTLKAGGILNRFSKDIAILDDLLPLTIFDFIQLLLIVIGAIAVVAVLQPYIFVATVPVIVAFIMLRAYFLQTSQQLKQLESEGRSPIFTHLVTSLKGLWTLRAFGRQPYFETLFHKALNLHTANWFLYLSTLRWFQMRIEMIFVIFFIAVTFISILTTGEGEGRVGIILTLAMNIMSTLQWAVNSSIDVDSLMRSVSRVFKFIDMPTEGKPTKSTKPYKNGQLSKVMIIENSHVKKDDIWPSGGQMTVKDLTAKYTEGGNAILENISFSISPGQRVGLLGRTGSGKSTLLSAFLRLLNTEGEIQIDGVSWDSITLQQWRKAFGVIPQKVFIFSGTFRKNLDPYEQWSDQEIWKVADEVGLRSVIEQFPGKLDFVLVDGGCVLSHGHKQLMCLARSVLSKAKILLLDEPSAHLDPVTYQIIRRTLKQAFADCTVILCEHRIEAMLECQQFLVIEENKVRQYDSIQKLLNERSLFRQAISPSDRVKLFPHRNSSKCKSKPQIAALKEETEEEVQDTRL
# method_summary: Membrane potential optical assay (FRET/VIPR), identification of correction compounds
# Assay type: cell-based
# experimental_parameters: relative efficacy
# Description: I) Membrane Potential Optical Methods for Assaying ΔF508-CFTR Modulation Properties of Compounds […] These voltage sensitive assays are based on the change in fluorescence resonant energy transfer (FRET) between the membrane-soluble, voltage-sensitive dye, DiSBAC2(3), and a fluorescent phospholipid, CC2-DMPE, which is attached to the outer leaflet of the plasma membrane and acts as a FRET donor. […]
assay_readout: Emax

[[record]]
molecule = "CC(c1nc2ccccc2c(=O)n1C)N(C)C1CCN(S(=O)(=O)c2ccc(Br)cc2)CC1 (stereo not shown) [compound 306]"
assay_readout = "Emax"
result = "25 to 100%"

[[record]]
molecule = "COc1ccc(S(=O)(=O)N2CCN(C(C)c3nc(N4CCC(CO)CC4)c4ccccc4n3)CC2)cc1 (stereo not shown) [compound 347]"
assay_readout = "Emax"
result = "25 to 100%"

[[record]]
molecule = "CC(c1nc2ccccc2c(=O)n1C)N1CCN(S(=O)(=O)c2ccc(C(N)=O)cc2)CC1 (stereo not shown) [compound 291]"
assay_readout = "Emax"
result = "< 25%"

[[record]]
molecule = "COc1ccc(S(=O)(=O)N2CCC(NC(C)c3nc4ccccc4c(=O)n3C)C2)cc1 (stereo not shown) [compound 224]"
assay_readout = "Emax"
result = "< 25%"


====

# system_name: ΔF508-CFTR (Homo sapiens, UniProt P13569, DEL508-508)
# method_summary: Membrane potential optical assay (FRET/VIPR), identification of correction compounds
# Description: I) Membrane Potential Optical Methods for Assaying ΔF508-CFTR Modulation Properties of Compounds […] These voltage sensitive assays are based on the change in fluorescence resonant energy transfer (FRET) between the membrane-soluble, voltage-sensitive dye, DiSBAC2(3), and a fluorescent phospholipid, CC2-DMPE, which is attached to the outer leaflet of the plasma membrane and acts as a FRET donor. […]
The entries below are paired with their reported EC50.
assay_readout: EC50

[[record]]
compound = "COCCn1c(C(C)N2CCN(S(=O)(=O)c3ccc(Br)cc3)CC2)nc2ccccc2c1=O (stereo not shown) [compound 5]"
result = "< 10 µM"

[[record]]
compound = "CC(c1nc2ccccc2c(=O)n1C)N1CCN(S(=O)(=O)c2ccc(-c3cc(C(F)(F)F)on3)s2)CC1 (stereo not shown) [compound 261]"
result = "25 to 60 µM"

[[record]]
compound = "COc1ccc(S(=O)(=O)N2CCN(C(C)c3nc(N4CCC5(CC4)OCCCO5)c4ccccc4n3)CC2)cc1 (stereo not shown) [compound 328]"
result = "10 to 25 µM"

[[record]]
compound = "CC(NC1CCN(S(=O)(=O)c2ccc(Br)cc2)CC1)c1nc2ccccc2c(=O)n1C (stereo not shown) [compound 210]"
result = "< 10 µM"

[[record]]
compound = "CC(c1nc2cc(Cl)ccc2c(=O)n1C)N1CCN(S(=O)(=O)c2ccc(OC(F)(F)F)cc2)CC1 (stereo not shown) [compound 99]"
result = "< 10 µM"

[[record]]
compound = "COc1ccc(S(=O)(=O)N2CCN(C(C)(C)c3nc4ccc(Cl)cc4c(=O)n3C)CC2)cc1 [compound 149]"
result = "< 10 µM"

[[record]]
compound = "CCCn1c(C(C)N2CCN(S(=O)(=O)c3c(C)cc(C)cc3C)CC2)nc2ccccc2c1=O (stereo not shown) [compound 21]"
result = "25 to 60 µM"


====

The entries below are paired with their reported Emax.
# system_name: ΔF508-CFTR (Homo sapiens, UniProt P13569, DEL508-508)
# Construct: expressed in transfected cells
# method_summary: Membrane potential optical assay (FRET/VIPR), identification of correction compounds
# Assay type: cell-based
# experimental_parameters: relative efficacy
assay_readout: Emax

[[record]]
compound = "COc1ccc(S(=O)(=O)N2CCN(C(C)c3nc(OC)c4ccccc4n3)CC2)cc1 (centres unmarked) [compound 187]"
result = "25 to 100%"

[[record]]
compound = "CC(c1nc2ccccc2c(=O)n1C)N1CCN(S(=O)(=O)c2cccc(C(=O)O)c2)CC1 (centres unmarked) [compound 246]"
result = "< 25%"

[[record]]
compound = "CCCn1c(C(C)N2CCN(C(=O)c3ccc4ccccc4c3)CC2)nc2ccccc2c1=O (centres unmarked) [compound 30]"
result = "25 to 100%"

[[record]]
compound = "CCCOc1nc(C(C)N2CCN(S(=O)(=O)c3ccc(OC)cc3)CC2)nc2ccccc12 (centres unmarked) [compound 189]"
result = "> 100%"

[[record]]
compound = "CCCC(c1nc(N2CCCCC2)c2ccccc2n1)N1CCN(S(=O)(=O)c2ccc(OC)cc2)CC1 (centres unmarked) [compound 339]"
result = "> 100%"

[[record]]
compound = "COc1ccc(S(=O)(=O)N2CCN(C(C)c3nc(OCC4COCO4)c4ccccc4n3)CC2)cc1 (centres unmarked) [compound 294]"
result = "25 to 100%"

[[record]]
compound = "CC(NC1CCN(S(=O)(=O)c2ccc(Cl)cc2)C1)c1nc2ccccc2c(=O)n1C (centres unmarked) [compound 225]"
result = "< 25%"

[[record]]
compound = "CCNc1nc(C(C)N2CCN(S(=O)(=O)c3ccc(Br)cc3)CC2)nc2ccccc12 (centres unmarked) [compound 221]"
result = "25 to 100%"


====

# system_name: ΔF508-CFTR (Homo sapiens, UniProt P13569, DEL508-508)
# method_summary: Membrane potential optical assay (FRET/VIPR), identification of correction compounds
# Description: I) Membrane Potential Optical Methods for Assaying ΔF508-CFTR Modulation Properties of Compounds […] These voltage sensitive assays are based on the change in fluorescence resonant energy transfer (FRET) between the membrane-soluble, voltage-sensitive dye, DiSBAC2(3), and a fluorescent phospholipid, CC2-DMPE, which is attached to the outer leaflet of the plasma membrane and acts as a FRET donor. […]
pEC50: −log10 of the molar value.
The entries below are paired with their reported pEC50.
assay_readout: pEC50

[[record]]
compound = "CC(c1nc2ccccc2c(=O)n1C)N1CCN(S(=O)(=O)c2ccc(Cl)c(Cl)c2)CC1 (stereo not shown)"
assay_readout = "pEC50"
result = "> 5.00"

[[record]]
compound = "CC(c1nc2cccc(Cl)c2c(=O)n1C)N1CCN(S(=O)(=O)c2ccc(Cl)cc2)CC1 (stereo not shown)"
assay_readout = "pEC50"
result = "4.60 to 5.00"

[[record]]
compound = "CC(c1nc2ccccc2c(=O)n1C)N1CCN(S(=O)(=O)c2ccccc2F)CC1 (stereo not shown)"
assay_readout = "pEC50"
result = "4.22 to 4.60"

[[record]]
compound = "COc1ccc(S(=O)(=O)N2CCN(C(C)c3nc(OC4CCC(C)CC4)c4ccccc4n3)CC2)cc1 (stereo not shown)"
assay_readout = "pEC50"
result = "> 5.00"


====

The entries below are paired with their reported Emax.
# system_name: ΔF508-CFTR (Homo sapiens, UniProt P13569, DEL508-508)
# Construct: expressed in transfected cells
# method_summary: Membrane potential optical assay (FRET/VIPR), identification of correction compounds
# Assay type: cell-based
# experimental_parameters: relative efficacy
assay_readout: Emax

[[record]]
molecule = "COc1nc(C(C)N2CCN(S(=O)(=O)c3ccc(Br)cc3)CC2)nc2ccccc12 (centres unmarked) [compound 227]"
assay_readout = "Emax"
result = "25 to 100%"

[[record]]
molecule = "COc1ccc(S(=O)(=O)N2CCN(C(C)c3nc(N4CCC5CCCCC5C4)c4ccccc4n3)CC2)cc1 (centres unmarked) [compound 327]"
assay_readout = "Emax"
result = "> 100%"

[[record]]
molecule = "COc1ccc(S(=O)(=O)N2CCC(N(C)C(C)c3nc4ccccc4c(=O)n3C)CC2)cc1 (centres unmarked) [compound 314]"
assay_readout = "Emax"
result = "25 to 100%"

[[record]]
molecule = "CNCCNC(C)c1nc2ccccc2c(=O)n1C (centres unmarked) [compound 182]"
assay_readout = "Emax"
result = "< 25%"

[[record]]
molecule = "Cc1ccccc1S(=O)(=O)N1CCN(C(C)c2nc3cc(Cl)ccc3c(=O)n2C)CC1 (centres unmarked) [compound 109]"
assay_readout = "Emax"
result = "25 to 100%"

[[record]]
molecule = "CNc1nc(C(C)N2CCN(S(=O)(=O)c3ccc(Br)cc3)CC2)nc2ccccc12 (centres unmarked) [compound 219]"
assay_readout = "Emax"
result = "25 to 100%"

[[record]]
molecule = "COc1ccc(S(=O)(=O)NCCNC(C)c2nc3ccccc3c(=O)n2C)cc1 (centres unmarked) [compound 167]"
assay_readout = "Emax"
result = "< 25%"

[[record]]
molecule = "COc1ccc(S(=O)(=O)N2CCN(Cc3nc(N4CCCCC4)c4ccccc4n3)CC2)cc1 [compound 384]"
assay_readout = "Emax"
result = "> 100%"

